PROTOCOL_DESCRIPTION: Phase I crossover DDI study: rosuvastatin
Type: in vivo, human
RUN_CONDITIONS: both, human, plasma, oral, 10 mg
REPORTED_ENDPOINT: AUC(0-inf) (ng·h/mL)
Write the answer as a number in ng·h/mL, unit excluded.

Give its AUC(0-inf) value. Item: "CC(C)c1nc(N(C)S(C)(=O)=O)nc(-c2ccc(F)cc2)c1/C=C/[C@@H](O)C[C@@H](O)CC(=O)O"
57.6

* * *

PROTOCOL_DESCRIPTION: Phase I crossover DDI study: dabigatran etexilate
Format: in vivo, human
RUN_CONDITIONS: both, human, plasma, oral, 75 mg
REPORTED_ENDPOINT: half-life (h)
Write the answer as a number in h, unit excluded.

Give its half-life value. Item: [H]/N=C(/N)c1ccc(NCc2nc3cc(C(=O)N(CCC(=O)O)c4ccccn4)ccc3n2C)cc1 [Dabigatran, dabigatran]
8.93

* * *

PROTOCOL_DESCRIPTION: Phase I crossover DDI study: rosuvastatin
Format: in vivo, human
RUN_CONDITIONS: both, human, urine and plasma, oral, 10 mg
REPORTED_ENDPOINT: CL renal (mL/min)
Write the answer as a number in mL/min, unit excluded.

Give its CL renal value. Item: "CC(C)c1nc(N(C)S(C)(=O)=O)nc(-c2ccc(F)cc2)c1/C=C/[C@@H](O)C[C@@H](O)CC(=O)O"
243

* * *

PROTOCOL_DESCRIPTION: clinical
RUN_CONDITIONS: both, human, plasma, oral, 500 mg
REPORTED_ENDPOINT: Cmax
Write the numeric value and follow it with the unit.

Give its Cmax value. Item: "CN(C)C(=N)N=C(N)N"
721 ng/mL
